Consider the following compounds and their measured MIC readings.
# System: E. faecium CTC 492
# assay: MIC assay of antibiotics with ATX-101
# Format: cell-based, Enterococcus faecium
# details: Enterococcus faecium, CTC492, E. faecium CTC 492; APIM conc. 0 μg/ml; read-out: Est MIC

compound	test.system	MIC, µg/mL
NC[C@H]1O[C@H](O[C@H]2[C@H](O)[C@@H](O[C@H]3O[C@H](CO)[C@@H](O)[C@H](N)[C@H]3O)[C@H](N)C[C@@H]2N)[C@H](N)C[C@@H]1O	E. faecium CTC 492	64
CC[C@@]1([C@@H]2O[C@@H]([C@H]3O[C@@](O)(CO)[C@H](C)C[C@@H]3C)C[C@@H]2C)CC[C@H]([C@]2(C)CC[C@]3(C[C@H](O)[C@@H](C)[C@@H]([C@@H](C)[C@@H](OC)[C@H](C)C(=O)O)O3)O2)O1	E. faecium CTC 492	1
CO[C@H]1/C=C/O[C@@]2(C)Oc3c(C)c(O)c4c(O)c(c(/C=N/N5CCN(C)CC5)c(O)c4c3C2=O)NC(=O)/C(C)=C\C=C\[C@H](C)[C@H](O)[C@@H](C)[C@@H](O)[C@@H](C)[C@H](OC(C)=O)[C@@H]1C	E. faecium CTC 492	16
CN[C@@H]1[C@@H](O[C@H]2O[C@H](CO)[C@@H](N)[C@H](O)[C@H]2O)OC2C[C@@H](N)[C@@H](O[C@H]3[C@H](O)[C@@H](O)[C@H](N)C[C@@H]3N)OC2[C@@H]1O (some centres unmarked)	E. faecium CTC 492	64
C[C@@H](O)[C@H]1C(=O)N2C(C(=O)O)=C(SCCN=CN)C[C@H]12	E. faecium CTC 492	4
CC1(C)S[C@@H]2[C@H](NC(=O)[C@H](N)c3ccccc3)C(=O)N2[C@H]1C(=O)O	E. faecium CTC 492	1
CC[C@H]1OC(=O)[C@H](C)[C@@H](O[C@H]2C[C@@](C)(OC)[C@@H](O)[C@H](C)O2)[C@H](C)[C@@H](O[C@@H]2O[C@H](C)C[C@H](N(C)C)[C@H]2O)[C@](C)(O)C[C@@H](C)C(=O)[C@H](C)[C@@H](O)[C@]1(C)O	E. faecium CTC 492	4
O=C(N[C@H](CO)[C@H](O)c1ccc([N+](=O)[O-])cc1)C(Cl)Cl	E. faecium CTC 492	2
